Target: human p38 kinase alpha (Homo sapiens)
Construct: The coding region of the human p38a cDNA was obtained by PCR-amplification from RNA isolated from the human monocyte cell line THP.1; GST (N); made in house; host or cells: E. coli DH10B
Sequence (Q16539 whole entry): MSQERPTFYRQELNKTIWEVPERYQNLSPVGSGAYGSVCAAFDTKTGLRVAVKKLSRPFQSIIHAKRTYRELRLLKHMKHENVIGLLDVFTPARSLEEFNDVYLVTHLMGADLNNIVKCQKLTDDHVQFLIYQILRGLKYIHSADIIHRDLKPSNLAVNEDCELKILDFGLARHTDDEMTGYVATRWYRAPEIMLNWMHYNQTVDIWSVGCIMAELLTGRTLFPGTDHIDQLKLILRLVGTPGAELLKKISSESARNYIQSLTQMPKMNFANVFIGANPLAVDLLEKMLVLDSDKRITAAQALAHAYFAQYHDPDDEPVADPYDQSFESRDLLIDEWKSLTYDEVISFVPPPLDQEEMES
Experiment: p38 kinase in vitro assay, phosphorylation of biotinylated PHAS-I with gamma 32P-ATP
Type: biochemical
Conditions: p38α in vitro, PHAS-I assay procedure; read-out: p38^1 IC50

{"compound": "Fc1ccc(-c2n[nH]cc2-c2ccnc(NC3CCN(Cc4ccccc4)CC3)c2)cc1 [Example A-263]", "censor symbol": "<", "IC50, nM": 10}
{"compound": "OCCn1cc(-c2ccnc(NCc3ccc(F)cc3)c2)c(-c2ccc(F)cc2)n1 [Example A-289]", "censor symbol": "<", "IC50, nM": 100}
{"compound": "OCCn1cc(-c2ccnc(NCc3ccc(F)cc3)c2)c(-c2ccc(F)cc2)n1 [Example A-283]", "censor symbol": "<", "IC50, nM": 100}
{"compound": "Cn1nc(-c2ccc(F)cc2)c(-c2ccncc2)c1C(O)c1ccccc1 (stereo not drawn) [Example A-217]", "censor symbol": "=", "IC50, nM": 697}
{"compound": "O=C(O)CNc1[nH]nc(-c2ccc(F)cc2)c1-c1ccncc1 [Example A-293]", "censor symbol": "=", "IC50, nM": 730}
{"compound": "C#CCn1ncc(-c2ccncc2)c1-c1ccc(F)cc1 [Example A-295]", "censor symbol": "=", "IC50, nM": 7660}
{"compound": "Cn1cc(-c2ccnc(NCCO)c2)c(-c2ccc(F)cc2)n1 [Example A-281]", "censor symbol": "=", "IC50, nM": 53}
{"compound": "OCCn1cc(-c2ccncc2)c(-c2ccc(F)cc2)n1 [Example A-210]", "censor symbol": "=", "IC50, nM": 160}
{"compound": "CN(C)CCn1cc(-c2ccnc(N(C)C)c2)c(-c2ccc(F)cc2)n1 [Example A-273]", "censor symbol": "=", "IC50, nM": 6980}
{"compound": "Clc1ccc(-c2n[nH]cc2-c2ccncc2)cc1Cl [Example A-297]", "censor symbol": "=", "IC50, nM": 520}
{"compound": "OCCn1cc(-c2ccnc(CCc3ccc(F)cc3)c2)c(-c2ccc(F)cc2)n1 [Example A-272]", "censor symbol": "=", "IC50, nM": 73}
{"compound": "c1cc(-c2c[nH]nc2-c2ccc3c(c2)OCO3)ccn1 [Example A-228]", "censor symbol": "=", "IC50, nM": 760}
{"compound": "CN(C)CCn1cc(-c2ccnc(NCc3ccc(F)cc3)c2)c(-c2ccc(F)cc2)n1 [Example A-274]", "censor symbol": "<", "IC50, nM": 100}
{"compound": "Fc1ccc(CNc2cc(-c3cn(CCN4CCOCC4)nc3-c3ccc(F)cc3)ccn2)cc1 [Example A-285]", "censor symbol": "<", "IC50, nM": 100}
{"compound": "CN(C)CCCNc1[nH]nc(-c2ccc(F)cc2)c1-c1ccncc1 [Example A-287]", "censor symbol": "=", "IC50, nM": 41}
